Assay: melting temperature; melt of duplexes
Conditions: sodium 0.0675 M; strand 1 µM
MEASURED_METRIC: Tm (°C)
The reply should be a number in °C, with the unit left off.

>>> result_value("CGACGTGCATAATGTGCTG+CAGCACATTATGCACGTCG (((((((((((((((((((+)))))))))))))))))))")
61.8
>>> result_value("CGACGTGCCGCATGTGCTG+CAGCACATCTCGCACGTCG ((((((((...((((((((+))))))))...))))))))")
47.8
>>> result_value("CGACGTGCCCGATGTGCTG+CAGCACATACTGCACGTCG ((((((((...((((((((+))))))))...))))))))")
48.7

Query: Please give the measured Tm for this substance: CGACGTGCGAAATGTGCTG+CAGCACATCGTGCACGTCG ((((((((...((((((((+))))))))...))))))))
Response: 44.7

Query: Please give the measured Tm for this substance: CGACGTGCCAGATGTGCTG+CAGCACATCTCGCACGTCG ((((((((.((((((((((+)))))))))).))))))))
Response: 55.9

Query: Please give the measured Tm for this substance: CGACGTGCGATATGTGCTG+CAGCACATTGAGCACGTCG ((((((((...((((((((+))))))))...))))))))
Response: 57.2

Query: Please give the measured Tm for this substance: CGACGTGCATTATGTGCTG+CAGCACATGATGCACGTCG ((((((((((.((((((((+)))))))).))))))))))
Response: 58.1

Query: Please give the measured Tm for this substance: CGACGTGCCAAATGTGCTG+CAGCACATTAGGCACGTCG (((((((((.(((((((((+))))))))).)))))))))
Response: 57.8

Query: Please give the measured Tm for this substance: CGACGTGCAATATGTGCTG+CAGCACATGGTGCACGTCG (((((((((..((((((((+))))))))..)))))))))
Response: 51

Query: Please give the measured Tm for this substance: CGACGTGCCTGATGTGCTG+CAGCACATATGGCACGTCG (((((((((..((((((((+))))))))..)))))))))
Response: 55.8

###

Test: melting temperature; melt of duplexes
Conditions: sodium 0.0675 M; strand 1 µM
Below, each of the substances is paired with its reported Tm value.
Please don't drop the unit; write it after the number.

Consider the worked cases shown below.
>>> result_value("CGACGTGCAGAATGTGCTG+CAGCACATATTGCACGTCG (((((((((..((((((((+))))))))..)))))))))")
"50.5 °C"
>>> result_value("CGACGTGCACGATGTGCTG+CAGCACATTCTGCACGTCG (((((((((..((((((((+))))))))..)))))))))")
"49.2 °C"
>>> result_value("CGACGTGCGGAATGTGCTG+CAGCACATCTTGCACGTCG ((((((((...((((((((+))))))))...))))))))")
"50.8 °C"
>>> result_value("CGACGTGCATCATGTGCTG+CAGCACATCGAGCACGTCG ((((((((...((((((((+))))))))...))))))))")
"48.9 °C"

Then this substance:
Query: Please give the measured Tm for this substance: CGACGTGCGCCATGTGCTG+CAGCACATAAGGCACGTCG ((((((((...((((((((+))))))))...))))))))
Response: 48.6 °C

###

Assay: melting temperature; melt of duplexes
Settings: sodium 0.0675 M; strand 1 µM
MEASURED_METRIC: Tm (°C)
The reply should be a number in °C, with the unit left off.

Consider the worked cases shown below.
>>> result_value("CGACGTGCCGGATGTGCTG+CAGCACATGGAGCACGTCG ((((((((...((((((((+))))))))...))))))))")
51
>>> result_value("CGACGTGCATGATGTGCTG+CAGCACATGGGGCACGTCG ((((((((...((((((((+))))))))...))))))))")
50

Query: Please give the measured Tm for this substance: CGACGTGCGCGATGTGCTG+CAGCACATTTGGCACGTCG ((((((((...((((((((+))))))))...))))))))
Response: 49.7

Query: Please give the measured Tm for this substance: CGACGTGCGTAATGTGCTG+CAGCACATCGGGCACGTCG ((((((((...((((((((+))))))))...))))))))
Response: 49.4

Query: Please give the measured Tm for this substance: CGACGTGCTGCATGTGCTG+CAGCACATATTGCACGTCG ((((((((...((((((((+))))))))...))))))))
Response: 49.3

###

Assay: melting temperature; melt of duplexes
Conditions: sodium 0.0675 M; strand 1 µM
Decision: Tm compared against 50 °C; not below it gives yes (1), below it gives no (0).

Would you please look over these solved cases?
>>> classification("CGACGTGCAGCATGTGCTG+CAGCACATACAGCACGTCG ((((((((.(.((((((((+)))))))).).))))))))")
"no (0)"
>>> classification("CGACGTGCCCGATGTGCTG+CAGCACATACCGCACGTCG ((((((((...((((((((+))))))))...))))))))")
"no (0)"

Query: Does the substance CGACGTGCATTATGTGCTG+CAGCACATGAGGCACGTCG ((((((((.(.((((((((+)))))))).).)))))))) have recorded Tm that is 50 °C or more?
Response: yes (1)

Query: Does the substance CGACGTGCATAATGTGCTG+CAGCACATTTAGCACGTCG ((((((((..(((((((((+)))))))))..)))))))) have recorded Tm that is 50 °C or more?
Response: yes (1)

Query: Does the substance CGACGTGCCATATGTGCTG+CAGCACATGAGGCACGTCG (((((((((..((((((((+))))))))..))))))))) have recorded Tm that is 50 °C or more?
Response: yes (1)

Query: Does the substance CGACGTGCTAGATGTGCTG+CAGCACATGCAGCACGTCG (((((((((..((((((((+))))))))..))))))))) have recorded Tm that is 50 °C or more?
Response: yes (1)

Query: Does the substance CGACGTGCTATATGTGCTG+CAGCACATATTGCACGTCG ((((((((.((((((((((+)))))))))).)))))))) have recorded Tm that is 50 °C or more?
Response: yes (1)

Query: Does the substance CGACGTGCGCTATGTGCTG+CAGCACATCCCGCACGTCG (((((((((..((((((((+))))))))..))))))))) have recorded Tm that is 50 °C or more?
Response: yes (1)

###

Below, each of the substances is paired with its reported Tm value.
Experiment: melting temperature; melt of duplexes
Details: sodium 0.0675 M; strand 1 µM
The reply should be a number in °C, with the unit left off.

>>> result_value("CGACGTGCCAAATGTGCTG+CAGCACATCGAGCACGTCG ((((((((...((((((((+))))))))...))))))))")
49.6
>>> result_value("CGACGTGCCAAATGTGCTG+CAGCACATCTAGCACGTCG ((((((((.(.((((((((+)))))))).).))))))))")
49.3

Query: Please give the measured Tm for this substance: CGACGTGCTGGATGTGCTG+CAGCACATGTCGCACGTCG ((((((((...((((((((+))))))))...))))))))
Response: 50.3

Query: Please give the measured Tm for this substance: CGACGTGCTAGATGTGCTG+CAGCACATGCCGCACGTCG ((((((((...((((((((+))))))))...))))))))
Response: 49.2

###

Assay: melting temperature; melt of duplexes
Settings: sodium 0.0675 M; strand 1 µM
Below, each of the substances is paired with its reported Tm value.
The reply should be a number in °C, with the unit left off.

Consider the worked cases shown below.
>>> result_value("CGACGTGCCGCATGTGCTG+CAGCACATTGAGCACGTCG ((((((((...((((((((+))))))))...))))))))")
49.5
>>> result_value("CGACGTGCAGAATGTGCTG+CAGCACATAGGGCACGTCG ((((((((...((((((((+))))))))...))))))))")
49.2
>>> result_value("CGACGTGCGCAATGTGCTG+CAGCACATGTTGCACGTCG ((((((((...((((((((+))))))))...))))))))")
51.5
>>> result_value("CGACGTGCTTAATGTGCTG+CAGCACATTTCGCACGTCG ((((((((..(((((((((+)))))))))..))))))))")
51

Then this substance:
Query: Please give the measured Tm for this substance: CGACGTGCTCAATGTGCTG+CAGCACATGCCGCACGTCG ((((((((...((((((((+))))))))...))))))))
Response: 49
